Data origin: patent US10829452B2

Target: G9a (Homo sapiens, UniProt Q96KQ7)
Sequence (Q96KQ7 1-1210): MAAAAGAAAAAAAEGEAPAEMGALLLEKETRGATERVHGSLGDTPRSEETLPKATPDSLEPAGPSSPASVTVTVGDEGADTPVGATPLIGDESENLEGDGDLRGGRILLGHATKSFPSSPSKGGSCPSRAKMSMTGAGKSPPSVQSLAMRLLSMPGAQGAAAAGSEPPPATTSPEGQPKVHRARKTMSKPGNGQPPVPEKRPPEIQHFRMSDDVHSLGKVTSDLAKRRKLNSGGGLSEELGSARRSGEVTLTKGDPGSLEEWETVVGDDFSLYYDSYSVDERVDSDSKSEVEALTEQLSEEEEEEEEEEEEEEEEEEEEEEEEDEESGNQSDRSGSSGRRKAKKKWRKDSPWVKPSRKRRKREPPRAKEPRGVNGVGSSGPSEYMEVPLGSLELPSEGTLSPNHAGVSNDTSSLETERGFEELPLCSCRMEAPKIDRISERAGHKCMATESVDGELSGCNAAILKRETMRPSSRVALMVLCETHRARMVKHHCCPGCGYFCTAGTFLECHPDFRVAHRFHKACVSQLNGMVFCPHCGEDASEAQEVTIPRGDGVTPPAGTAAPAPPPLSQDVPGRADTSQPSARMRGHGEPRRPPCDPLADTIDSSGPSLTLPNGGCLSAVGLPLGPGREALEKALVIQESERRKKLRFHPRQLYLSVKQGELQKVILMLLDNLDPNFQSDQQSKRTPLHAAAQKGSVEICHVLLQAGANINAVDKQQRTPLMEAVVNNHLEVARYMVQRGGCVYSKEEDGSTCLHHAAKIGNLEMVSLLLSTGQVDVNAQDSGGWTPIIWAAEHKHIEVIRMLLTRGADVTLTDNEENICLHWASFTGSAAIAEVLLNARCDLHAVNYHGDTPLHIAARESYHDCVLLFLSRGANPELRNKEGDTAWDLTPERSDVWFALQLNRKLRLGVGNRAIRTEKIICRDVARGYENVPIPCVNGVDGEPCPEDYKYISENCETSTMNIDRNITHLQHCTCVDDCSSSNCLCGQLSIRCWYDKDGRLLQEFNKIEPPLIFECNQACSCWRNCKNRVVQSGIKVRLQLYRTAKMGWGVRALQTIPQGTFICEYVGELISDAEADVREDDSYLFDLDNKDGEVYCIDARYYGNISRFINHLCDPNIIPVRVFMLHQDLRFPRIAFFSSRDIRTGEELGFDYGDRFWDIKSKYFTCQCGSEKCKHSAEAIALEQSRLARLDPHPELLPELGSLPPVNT
Experiment: G9a AlphaLISA enzymatic activity assay
Format: biochemical
Details: 0.15 nM G9a, 15 uM S-adenosyl-methionine, 100 nM biotinylated histone 3 peptide (1-21), 1 hour at room temperature; read-out: G9a in (uM) (IC50, concentration that produced 50% inhibition)
Counter-ions that a name gives are not always drawn.
parameter: IC50 (µM)

The cases that follow already have their IC50 on record.
[
  {
    "molecule": "COc1cc2c3c(c(NC(C)C)nc2cc1OCCCN1CCCC1)CCN3 [Example 23, trifluoroacetate]",
    "value": 0.003
  },
  {
    "molecule": "COc1cc2c3c(c(-c4ccccc4)nc2cc1OCCCN1CCCC1)CC(C)(C)N3 [Example 114, formate]",
    "value": 0.17
  }
]

[a] CNc1nc2cc(OCCCN3CCCC3)c(OC)cc2c2c1CCCN2 [Example 26, formate]
[b] COc1cc2c3c(c(NCC4CC4)nc2cc1OCCCN1CCCC1)CCC3 [Example 108, trifluoroacetate]
[c] COc1cc2c3c(c(C4CC4)nc2cc1OCCCN1CCCC1)CCCCN3 [Example 80, trifluoroacetate]
[d] COc1cc2c3c(c(NCCc4ccccc4)nc2cc1OCCCN1CCCC1)CCC3 [Example 5, trifluoroacetate]
[e] COc1cc2c3c(c(NC(C)C)nc2cc1OCCCN1CCCC1)COCC3 [Example 50, formate]
Query: Sort entries by IC50 from minimum to maximum value. Write the labels, ordered according to the request.
Result: a, c, b, d, e

[I] COc1cc2c3c(c(NC(C)C)nc2c(F)c1OCCCN1CCCC1)CCC3 [Example 63, formate]
[II] COc1cc2c3c(c(C4CC4)nc2cc1OCCCN1CCCC1)CC(C)(C)N3 [Example 36, formate]
Query: Response body: label of entry with the larger IC50; valid values I , II . Give the label of your selection.
Result: I
(I: 2.3 µM, II: 0.009 µM)

[a] COc1cc2c3c(c(N(C)C(C)C)nc2cc1OCCCN1CCCC1)CCC3 [Example 9, trifluoroacetate]
[b] COc1cc2c3c(c(C(C)C)nc2cc1OCCCN1CCCC1)CCCCN3 [Example 81, trifluoroacetate]
Query: Response body: label of entry with the larger IC50; valid values a , b . Give the label of your selection.
Result: a

[I] COc1cc2c3c(c(C4CCCCC4)nc2cc1OCCCN1CCCC1)CCC3 [Example 110, trifluoroacetate]
[II] COc1cc2c3c(c(NCCC(C)C)nc2cc1OCCCN1CCCC1)CC(C)(C)C3 [Example 87, formate]
Query: Response body: label of entry with the larger IC50; valid values I , II . Give the label of your selection.
Result: I
